Each recorded value in this set is attributed to patent US20070179120A1.

Readings of change in vivo at 100 mg/kg for the listed compounds
# Test system: obese female Zucker rats
# assay: Oral daily treatment of obese female Zucker rats for fourteen days: serum lipids, glycemic control indicators, body weight
# Format: in vivo, rat
# conditionInfo: Rattus norvegicus, 336 h, serum total cholesterol, 100 mg/kg/day oral, read-out: TC (Percent of Pre-treatment)
All answers are understood in %, so give the number only.

In: What value of change in vivo at 100 mg/kg has been reported for the following compound? CCCCC(O)CCCCCC(C)(C)C(=O)O (stereo not drawn)
Out: -3

In: Would you kindly share the measured change in vivo at 100 mg/kg for CC(C)(CO)CCCCC(CO)CCCCC(C)(C)CO ?
Out: -6
